Values of IC50 for UniProt:P23458, collected from a number of published sources:

CCOC(=O)Cn1cc(Nc2ncc3ccn(CC4CCCCCC4)c3n2)cn1 : 100 to 1000 nM
Cc1cc(Nc2ncc(C)c(N3CC(CC#N)(N4CCC(CS(C)(=O)=O)CC4)C3)n2)sn1 : < 10 nM
N#CCC(=O)N1CCC[C@@H](Nc2c(-c3cscn3)cnc3[nH]ccc23)C1 : 10 to 100 nM

From here, focus on the item given below.
Reading of IC50 for `N#CCC1(n2cc(-c3ncnc4[nH]ccc34)cn2)CN(C2CCN(C(=O)c3cc(F)c(F)c(F)c3)CC2)C1` with UniProt:P23458: 5 to 20 nM

====

pIC50: −log10 of the molar value.
Values of pIC50 for Tyrosine-protein kinase JAK1 (Homo sapiens), collected from a number of published sources:

Here are 3 molecules together with their reported answers.
CS(=O)(=O)N1CCC(N2CC(CC#N)(n3ccc(-c4ncnc5[nH]ccc45)c3)C2)CC1 : ≥ 8.30
Cc1nnc(-c2cnc3[nH]ccc3c2N[C@H]2C[C@@H](NS(=O)(=O)c3cccc(C#N)c3)C2)s1 : ≥ 8.00
O=C1NCCCCOCc2cc(ccc2OCc2ccccc2)Nc2nccc(n2)-c2ccc1cc2[N+](=O)[O-] : 5.00 to 6.00

From here, focus on the item given below.
Reading of pIC50 for `CCS(=O)(=O)N1CC(CC#N)(n2cc(-c3nc(Nc4ccccc4)nc4cc(C)sc34)cn2)C1` with Tyrosine-protein kinase JAK1 (Homo sapiens): < 6.00

====

Values of IC50 for Tyrosine-protein kinase JAK1 (Homo sapiens), collected from a number of published sources:

Here are 8 compounds together with their reported answers.
O=C1NCCCCOCc2cc(ccc2N2CCOCC2)Nc2nccc(n2)-c2ccc1cc2Cl : 101 to 1000 nM
CCNCc1cc(O[C@H]2CC[C@@H](N3CC(CC#N)(n4cc(-c5ncnc6[nH]ccc56)cn4)C3)CC2)nc(C(F)(F)F)c1 : < 10 nM
CNCc1ccc(-n2cc(-c3nc(NC4CCN(S(C)(=O)=O)CC4)ncc3C(F)(F)F)cn2)c(C)c1 : ≥ 10000 nM
C[C@@H](O)c1nc2cnc3ccsc3c2n1C1CCCCC1 : ≤ 100 nM
N#C[C@@H]1CCCC[C@H]1n1cc(C(N)=O)c(Nc2ccc3c(c2)C=CB(O)O3)n1 (relative stereo) : < 10 nM
Cc1nc2cc(Nc3ncc(Cl)c(NC4CCN(c5ccc(C#N)cn5)CC4)n3)ccn2n1 : 0.5 nM
C[C@@H](O)c1nc2cnc3ccsc3c2n1[C@H]1CC[C@H](CC#N)OC1 : < 100 nM
O=C(Nc1cccc2c(-c3ccnc(NC(=O)C4CC4)c3)c[nH]c12)c1ccc(C(F)(F)F)nc1 : 100 to 1000 nM

From here, focus on the item given below.
Reading of IC50 for `Cc1ccc(C(=O)Nc2nnc(C(F)(F)F)s2)cc1-c1ccc2c(c1)[nH]c1ncncc12` with Tyrosine-protein kinase JAK1 (Homo sapiens): > 1000 nM

====

Values of IC50 for Tyrosine-protein kinase JAK1 (Homo sapiens, UniProt P23458), collected from a number of published sources:

Reading of IC50 for `CCS(=O)(=O)N1CC(CC#N)(n2cc(-c3nc(Nc4ccc(S(C)(=O)=O)cc4)nc4ccsc34)cn2)C1` with Tyrosine-protein kinase JAK1 (Homo sapiens, UniProt P23458): < 50 nM

Reading of IC50 for `C[C@@H]1C[C@H](Nc2c(-c3ccncn3)cnc3[nH]ccc23)CN(C(=O)CC#N)C1` with Tyrosine-protein kinase JAK1 (Homo sapiens, UniProt P23458): 100 to 1000 nM

Reading of IC50 for `Cn1cc(-c2cc3nccn3c(-c3ccn([C@@H](CCF)[C@@H]4CC4(F)F)c3)n2)cn1` with Tyrosine-protein kinase JAK1 (Homo sapiens, UniProt P23458): 10 to 100 nM

Reading of IC50 for Cc1cnc(Nc2cccc(CN(C)C)c2)nc1N1CC(CC#N)(N2CCCC3(C2)CC3(F)F)C1 (stereo not drawn) with Tyrosine-protein kinase JAK1 (Homo sapiens, UniProt P23458): < 10 nM

Reading of IC50 for `O=C1NCCCCOCc2cc(ccc2OC2COC2)Nc2nccc(n2)-c2ccc1cc2[N+](=O)[O-]` with Tyrosine-protein kinase JAK1 (Homo sapiens, UniProt P23458): 1000 to 10000 nM

Reading of IC50 for Cc1cc(Nc2ncc(C)c(N3CC(C)(CNC(=O)C4CN(C(=O)OC(C)(C)C)CC4(F)F)C3)n2)sn1 (stereo not drawn) with Tyrosine-protein kinase JAK1 (Homo sapiens, UniProt P23458): < 100 nM
